Listing of entries alongside the reported hAB1 Kd/Variant Kd.
- systemUnderTest: T1, purified recombinant human VEGF165 (human, UniProt P15692 27-191, glycosylated)
- T1 construct: mature; Bought from Calbiochem; also called VEGF protein (Calbiochem); homodimeric VEGF protein
- T1 sequence (P15692 other isoform, or with tags, fused parts or gaps limits assumed): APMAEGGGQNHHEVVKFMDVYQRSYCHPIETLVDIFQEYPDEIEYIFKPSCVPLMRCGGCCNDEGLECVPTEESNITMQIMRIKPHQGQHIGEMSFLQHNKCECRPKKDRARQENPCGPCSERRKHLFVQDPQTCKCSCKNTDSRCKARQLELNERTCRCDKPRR
- test: SPR (BIAcore), purified scFv over VEGF immobilized on CM5 chip, 35 C
Give only the figure.

Reference set (2 entries):
1. hAB35 (scFv, Single chain format; not shown: HA-His6 tag at C-terminus) scFv: EVQLVQSGGGVVQPGGSLRLSCAASGYDFTHFGLNWIRQAPGKGPEWVGWINTYTGEPTYAQDFKRRVTFSLDTSKSTAYLQLNSLRAEDTAVYYCAKYPYYYGRSHWYFDVWGQGTLVTVSSGGGGSGGGGSGGGGSDIVMTQSPSTLSASPGERATITCNASQSIGSYLAWYQQKPGQAPKVLIYGASNLASGVPSRFSGSRSGTDFTLTISSLQPEDFAVYYCQQYNSTPWTFGGGTKLEIK
59.1
2. hAB8 (scFv, Single chain format; not shown: HA-His6 tag at C-terminus) scFv: EVQLVQSGGGVVQPGGSLRLSCAASGYTFTNYGMNWIRQAPGKGLEWVGWINTYTGEPTYAADFKRRVTFSLDTSKSTAYLQLNSLRAEDTAVYYCAKYPYYYGRSHWYFDVWGQGTLVTVSSGGGGSGGGGSGGGGSDIQMTQSPSSLSASVGDRVTITCSASQDISNYLNWYQQKPGKAPKVLIYFTSSLHSGVPSRFSGSGSGTDFTLTISSLQPEDFATYYCQQYSTVPWTFGQGTKVEIK
37.6

Please turn your attention to the following entry.
Measured hAB1 Kd/Variant Kd of hAB39 (scFv, Single chain format; not shown: HA-His6 tag at C-terminus) scFv: EVQLVQSGGGVVQPGGSLRLSCAASGYDFTHFGLNWVRQAPGKGLEWVGWVNTYTGETTYAHEFKRRVTFSLDTSKSTAYLQLNSLRAEDTAVYYCAKYPYYYGRSHWYFDVWGQGTLVTVSSGGGGSGGGGSGGGGSDIVMTQSPSTLSASPGERATITCNASQSIGSYLAWYQQKPGQAPKVLIYGASNLASGVPSRFSGSRSGTDFTLTISSLQPEDFAVYYCQQYNSTPWTFGGGTKLEIK : 23
